molecular target: ΔF508-CFTR (Homo sapiens, UniProt P13569, DEL508-508); construct: host or cells: CFBE41o-, doxycycline-inducible; assay: CFTR cell surface levels using HRP-tagged ΔF508-CFTR expressing CFBE cells, in the presence of a co-corrector; type: cell-based; conditions: HRP-tagged ΔF508-CFTR CFBE cells, in the presence of 3 μM co-corrector; read-out: EC50
Sequence (P13569 with tags, fused parts or gaps DEL508-508): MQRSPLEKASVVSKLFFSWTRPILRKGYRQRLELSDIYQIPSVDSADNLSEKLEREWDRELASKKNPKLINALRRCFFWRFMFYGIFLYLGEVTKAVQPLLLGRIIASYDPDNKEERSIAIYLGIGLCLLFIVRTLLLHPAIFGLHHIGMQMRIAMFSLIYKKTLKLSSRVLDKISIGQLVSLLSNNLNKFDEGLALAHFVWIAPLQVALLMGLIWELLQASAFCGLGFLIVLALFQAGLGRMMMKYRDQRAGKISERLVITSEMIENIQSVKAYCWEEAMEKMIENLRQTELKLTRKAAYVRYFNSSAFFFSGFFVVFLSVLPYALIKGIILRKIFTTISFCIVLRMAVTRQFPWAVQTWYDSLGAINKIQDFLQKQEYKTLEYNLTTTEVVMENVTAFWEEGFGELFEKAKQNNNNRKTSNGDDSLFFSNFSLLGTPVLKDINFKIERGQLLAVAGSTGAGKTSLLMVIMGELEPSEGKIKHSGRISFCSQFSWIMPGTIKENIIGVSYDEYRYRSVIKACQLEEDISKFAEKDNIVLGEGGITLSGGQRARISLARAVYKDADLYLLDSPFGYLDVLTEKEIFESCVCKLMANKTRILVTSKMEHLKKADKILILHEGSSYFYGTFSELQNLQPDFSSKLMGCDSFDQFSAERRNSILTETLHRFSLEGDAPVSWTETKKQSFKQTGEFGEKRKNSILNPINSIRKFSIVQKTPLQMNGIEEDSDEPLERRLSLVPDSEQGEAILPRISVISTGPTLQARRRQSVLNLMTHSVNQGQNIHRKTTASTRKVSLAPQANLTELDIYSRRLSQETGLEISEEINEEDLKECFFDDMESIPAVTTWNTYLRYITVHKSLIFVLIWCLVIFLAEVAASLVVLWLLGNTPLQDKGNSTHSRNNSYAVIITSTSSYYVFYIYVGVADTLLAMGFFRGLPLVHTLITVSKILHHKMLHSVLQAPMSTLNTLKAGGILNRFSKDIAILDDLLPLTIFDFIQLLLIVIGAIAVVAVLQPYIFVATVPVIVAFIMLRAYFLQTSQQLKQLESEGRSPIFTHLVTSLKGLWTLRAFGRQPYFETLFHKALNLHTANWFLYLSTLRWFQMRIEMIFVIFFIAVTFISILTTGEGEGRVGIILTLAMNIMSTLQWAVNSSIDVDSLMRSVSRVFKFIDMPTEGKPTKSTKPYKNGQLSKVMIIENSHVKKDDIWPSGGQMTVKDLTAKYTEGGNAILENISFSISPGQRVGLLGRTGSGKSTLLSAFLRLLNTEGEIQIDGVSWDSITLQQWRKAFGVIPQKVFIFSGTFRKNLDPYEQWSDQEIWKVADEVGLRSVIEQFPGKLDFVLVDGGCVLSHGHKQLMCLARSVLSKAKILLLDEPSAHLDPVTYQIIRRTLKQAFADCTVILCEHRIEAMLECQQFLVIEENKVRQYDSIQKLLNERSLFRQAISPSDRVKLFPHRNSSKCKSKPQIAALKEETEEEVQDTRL
# if measured EC50 < 0.5 µM: true  # else: false

Reference set, count: 2
| Smiles Structure | Assigned Category |
| --- | --- |
| CS(=O)(=O)NC(=O)c1cc(OCCN2CCS(=O)(=O)CC2)c2c(C3CCC3)nn(-c3ccccc3)c2n1 | false |
| CS(=O)(=O)NC(=O)c1cc(N2CC3(CCCC3)C2)c2c(C3CCC3)nn(-c3ccccc3)c2n1 | false |

Strictly below 0.5 µM in EC50? `CN(c1ccc(-c2cc(C(=O)NS(C)(=O)=O)nc3c2c(C2CCC2)nn3-c2cccc(N3CCCC3)c2)cc1)C1CCOCC1`
true

Strictly below 0.5 µM in EC50? `Cc1nn(-c2ccccc2)c2nc(C(=O)NS(C)(=O)=O)cc(-c3ccc(N4CC(N(C)C)C4)cc3)c12`
false

Strictly below 0.5 µM in EC50? `CN(C)S(=O)(=O)NC(=O)c1cc(N2CCC(CN3CCCC3)CC2)c2c(C3CCC3)nn(-c3ccc(F)cc3)c2n1`
true

Strictly below 0.5 µM in EC50? `COCC1CCN(c2cc(C(=O)NS(=O)(=O)N(C)C)nc3c2c(C2CCC2)nn3-c2ccccc2)CC1`
true

Strictly below 0.5 µM in EC50? `CS(=O)(=O)NC(=O)c1cc(N2CCC3(CCO3)CC2)c2c(C3CCC3)nn(-c3ccccc3)c2n1`
true
